// provenance: the NIST ThermoML archive (doi:10.1016/j.fluid.2018.04.024)

Listed next: entries and their corresponding mass density.
# Condition: 353.15 K; 100 kPa; Liquid; Vibrating tube method

Molecule | mass density [kg/m3]
CCCCC(=O)OC [methyl pentanoate] | 827.35
CCCC(=O)OC [methyl butanoate] | 829.58
CCCCCCCC(=O)OC [methyl octanoate] | 823.55
CCCCCC(=O)OC [methyl hexanoate] | 825.57
CCCCCCC(=O)OC [methyl heptanoate] | 824.35
CCCCCCCCC(=O)OC [methyl nonanoate] | 822.78

* * *

# Condition: 333.15 K; 20000 kPa; Liquid; Vibrating tube method
± gives the expanded uncertainty stated by the source.

Compound | mass density
CCCC(=O)OC [methyl butanoate] | 874.46 ± 0.93 kg/m3
CCCCCC(=O)OC [methyl hexanoate] | 864 ± 0.92 kg/m3
CCCCCCCC(=O)OC [methyl octanoate] | 858.22 ± 0.91 kg/m3
CCCCC(=O)OC [methyl pentanoate] | 868.26 ± 0.92 kg/m3
CCCCCCC(=O)OC [methyl heptanoate] | 860.63 ± 0.92 kg/m3
CCCCCCCCC(=O)OC [methyl nonanoate] | 856.18 ± 0.91 kg/m3

* * *

# Condition: 303.15 K; 30000 kPa; Liquid; Vibrating tube method

Molecule | Value units | mass density
CCCCCCC(=O)OC [methyl heptanoate] | kg/m3 | 892.3
CCCCCCCCC(=O)OC [methyl nonanoate] | kg/m3 | 885.85
CCCCCC(=O)OC [methyl hexanoate] | kg/m3 | 897.24
CCCC(=O)OC [methyl butanoate] | kg/m3 | 912.18
CCCCC(=O)OC [methyl pentanoate] | kg/m3 | 903.55
CCCCCCCC(=O)OC [methyl octanoate] | kg/m3 | 888.57

* * *

# Condition: 343.15 K; 60000 kPa; Liquid; Vibrating tube method

Molecule | mass density (kg/m3)
CCCCCC(=O)OC [methyl hexanoate] | 885.3
CCCCCCCCC(=O)OC [methyl nonanoate] | 875.25
CCCCCCC(=O)OC [methyl heptanoate] | 881.19
CCCCCCCC(=O)OC [methyl octanoate] | 877.98
CCCC(=O)OC [methyl butanoate] | 898.16
CCCCC(=O)OC [methyl pentanoate] | 890.84

* * *

# Condition: 323.15 K; 35000 kPa; Liquid; Vibrating tube method
Reported values of mass density for individual entries

Molecule | Value units | mass density
CCCCCCCC(=O)OC [methyl octanoate] | kg/m3 | 876.46
CCCCCC(=O)OC [methyl hexanoate] | kg/m3 | 884.15
CCCCC(=O)OC [methyl pentanoate] | kg/m3 | 889.44
CCCC(=O)OC [methyl butanoate] | kg/m3 | 897.21
CCCCCCC(=O)OC [methyl heptanoate] | kg/m3 | 879.74
CCCCCCCCC(=O)OC [methyl nonanoate] | kg/m3 | 873.86

* * *

# Condition: 303.15 K; 40000 kPa; Liquid; Vibrating tube method

Compound | mass density / kg/m3
CCCCCCCCC(=O)OC [methyl nonanoate] | 891.61
CCCCCC(=O)OC [methyl hexanoate] | 903.67
CCCCC(=O)OC [methyl pentanoate] | 910.27
CCCCCCC(=O)OC [methyl heptanoate] | 898.49
CCCCCCCC(=O)OC [methyl octanoate] | 894.49
CCCC(=O)OC [methyl butanoate] | 919.34
